Assay: Solubility comparison, saturated solutions in SGF, FeSSIF, FaSSIF and water, by HPLC
Assay type: physicochemical
Details: water, thermodynamic from solid, H2O, 24 hours
measured parameter: solubility at 24 h (µg/mL)
The reply should contain only the number, in µg/mL.

Cc1ccc(NC(=O)C2(c3ccc4c(c3)OC(F)(F)O4)CC2)nc1-c1cccc(C(=O)O)c1 [Form A] has a reported solubility at 24 h of 25
